- Target Or System: Chymotrypsin (Bos taurus)
- Construct: purchased Sigma-Aldrich
- Method Summary: Chymotrypsin inhibition, fluorogenic substrate assay (Suc-Ala-Ala-Pro-Phe-AMC)
- Type: biochemical
- Stated Conditions: Chymotrypsin; inhibitor concentration 333.333 nM; 40 min pre-incubation
Measured Property: Mean (RFU/s)

INSERT INTO measurements (compound, recorded_result) VALUES
  ('C/C=C1\NC(=O)[C@@H](NC(=O)[C@@H](NC(=O)[C@H](C)NC(=O)CCC)[C@@H](C)O)[C@@H](C)OC(=O)[C@H](C(C)C)NC(=O)[C@H](Cc2ccc(O)c(Br)c2)N(C)C(=O)[C@H](Cc2ccccc2)N2C(=O)[C@H](CC[C@H]2O)NC1=O [Molassamide B, molassamide B]', 0.3123),
  ('CC=C1NC(=O)[C@@H](NC(=O)[C@@H](NC(=O)[C@@H]2CCCN2C(=O)CCC)[C@@H](C)OC(=O)C2CCCN2C(=O)CCC)[C@@H](C)OC(=O)[C@H](C(C)C)NC(=O)[C@H](Cc2ccc(O)cc2)N(C)C(=O)[C@H](CC(C)C)N2C(=O)[C@H](CC[C@H]2O)NC1=O (stereo partly shown) [Rivulariapeptolide 1121, rivulariapeptolide 1121]', 0.623),
  ('CCCC(=O)N1CCCC1C(=O)NC(C(=O)NC1C(=O)NC(CC(C)C)C(=O)NC2CCC(O)N(C2=O)C(Cc2ccccc2)C(=O)N(C)C(Cc2ccc(O)cc2)C(=O)NC(C(C)C)C(=O)OC1C)C(C)OC(=O)C1CCCN1C(=O)CCC (stereo not shown) [Rivulariapeptolide 1185, rivulariapeptolide 1185]', 0.1823),
  ('CC=C1NC(=O)[C@@H](NC(=O)[C@@H](NC(=O)[C@@H]2CCCN2C(=O)CCC)[C@@H](C)O)[C@@H](C)OC(=O)[C@H](C(C)C)NC(=O)[C@H](Cc2ccc(O)cc2)N(C)C(=O)[C@H](Cc2ccccc2)N2C(=O)[C@H](CC[C@H]2O)NC1=O [Rivulariapeptolide 988, rivulariapeptolide 988]', 1.135);

----------
Proteinase K (Parengyodontium album, UniProt P06873): reported IC50 for various molecules.
Sequence (P06873 106-384): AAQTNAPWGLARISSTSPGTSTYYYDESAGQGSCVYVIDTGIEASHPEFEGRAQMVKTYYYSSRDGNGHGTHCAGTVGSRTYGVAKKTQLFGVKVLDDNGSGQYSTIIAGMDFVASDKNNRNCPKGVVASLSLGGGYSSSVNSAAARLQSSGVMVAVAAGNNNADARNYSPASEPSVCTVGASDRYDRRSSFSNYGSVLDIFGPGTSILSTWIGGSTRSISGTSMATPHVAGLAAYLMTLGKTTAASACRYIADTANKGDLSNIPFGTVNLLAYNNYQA
Measured Property: IC50 (nM)

INSERT INTO measurements (molecule, measured_property, unit_of_measurement, recorded_result) VALUES
  ('CC=C1NC(=O)[C@@H](NC(=O)[C@@H](NC(=O)[C@@H]2CCCN2C(=O)CCC)[C@@H](C)OC(=O)C2CCCN2C(=O)CCC)[C@@H](C)OC(=O)[C@H](C(C)C)NC(=O)[C@H](Cc2ccc(O)cc2)N(C)C(=O)[C@H](Cc2ccccc2)N2C(=O)[C@H](CC[C@H]2O)NC1=O (stereo partly drawn) [Rivulariapeptolide 1155, rivulariapeptolide 1155]', 'IC50', 'nM', 56.5),
  ('CCCC(=O)N1CCCC1C(=O)NC(C(=O)NC1C(=O)NC(CC(C)C)C(=O)NC2CCC(O)N(C2=O)C(Cc2ccccc2)C(=O)N(C)C(Cc2ccc(O)cc2)C(=O)NC(C(C)C)C(=O)OC1C)C(C)OC(=O)C1CCCN1C(=O)CCC (stereo not drawn) [Rivulariapeptolide 1185, rivulariapeptolide 1185]', 'IC50', 'nM', 55.3),
  ('CC=C1NC(=O)[C@@H](NC(=O)[C@@H](NC(=O)[C@@H]2CCCN2C(=O)CCC)[C@@H](C)O)[C@@H](C)OC(=O)[C@H](C(C)C)NC(=O)[C@H](Cc2ccc(O)cc2)N(C)C(=O)[C@H](Cc2ccccc2)N2C(=O)[C@H](CC[C@H]2O)NC1=O [Rivulariapeptolide 988, rivulariapeptolide 988]', 'IC50', 'nM', 85.5),
  ('C/C=C1\NC(=O)[C@@H](NC(=O)[C@@H](NC(=O)[C@H](C)NC(=O)CCC)[C@@H](C)O)[C@@H](C)OC(=O)[C@H](C(C)C)NC(=O)[C@H](Cc2ccc(O)cc2)N(C)C(=O)[C@H](Cc2ccccc2)N2C(=O)[C@H](CC[C@H]2O)NC1=O [Molassamide, molassamide]', 'IC50', 'nM', 21.6),
  ('CC=C1NC(=O)[C@@H](NC(=O)[C@@H](NC(=O)[C@@H]2CCCN2C(=O)CCC)[C@@H](C)OC(=O)C2CCCN2C(=O)CCC)[C@@H](C)OC(=O)[C@H](C(C)C)NC(=O)[C@H](Cc2ccc(O)cc2)N(C)C(=O)[C@H](CC(C)C)N2C(=O)[C@H](CC[C@H]2O)NC1=O (stereo partly drawn) [Rivulariapeptolide 1121, rivulariapeptolide 1121]', 'IC50', 'nM', 48),
  ('C/C=C1\NC(=O)[C@@H](NC(=O)[C@@H](NC(=O)[C@H](C)NC(=O)CCC)[C@@H](C)O)[C@@H](C)OC(=O)[C@H](C(C)C)NC(=O)[C@H](Cc2ccc(O)c(Br)c2)N(C)C(=O)[C@H](Cc2ccccc2)N2C(=O)[C@H](CC[C@H]2O)NC1=O [Molassamide B, molassamide B]', 'IC50', 'nM', 5.42);

----------
Catalogue of Mean (RFU/s) values
- Target Or System: Chymotrypsin (Bos taurus)
- Construct: purchased Sigma-Aldrich
- Method Summary: Chymotrypsin inhibition, fluorogenic substrate assay (Suc-Ala-Ala-Pro-Phe-AMC)
- Assay type: biochemical
- Stated Conditions: Chymotrypsin; inhibitor concentration 0.457247 nM; 40 min pre-incubation
Measured Property: Mean (RFU/s)

INSERT INTO results (compound, unit_of_measurement, recorded_result) VALUES
  ('CC=C1NC(=O)[C@@H](NC(=O)[C@@H](NC(=O)[C@@H]2CCCN2C(=O)CCC)[C@@H](C)O)[C@@H](C)OC(=O)[C@H](C(C)C)NC(=O)[C@H](Cc2ccc(O)cc2)N(C)C(=O)[C@H](Cc2ccccc2)N2C(=O)[C@H](CC[C@H]2O)NC1=O [Rivulariapeptolide 988, rivulariapeptolide 988]', 'RFU/s', 5.008),
  ('CC=C1NC(=O)[C@@H](NC(=O)[C@@H](NC(=O)[C@@H]2CCCN2C(=O)CCC)[C@@H](C)OC(=O)C2CCCN2C(=O)CCC)[C@@H](C)OC(=O)[C@H](C(C)C)NC(=O)[C@H](Cc2ccc(O)cc2)N(C)C(=O)[C@H](CC(C)C)N2C(=O)[C@H](CC[C@H]2O)NC1=O (some centres unmarked) [Rivulariapeptolide 1121, rivulariapeptolide 1121]', 'RFU/s', 4.969);

----------
- Target Or System: Chymotrypsin (Bos taurus, UniProt P00766)
- Construct: purchased Sigma-Aldrich
- Method Summary: Chymotrypsin inhibition, fluorogenic substrate assay (Suc-Ala-Ala-Pro-Phe-AMC)
- Type: biochemical
- Stated Conditions: Chymotrypsin; inhibitor concentration 111.111 nM; 40 min pre-incubation
Known Mean (RFU/s) of a selection of compounds
Measured Property: Mean (RFU/s)

INSERT INTO results (compound, measured_property, recorded_result) VALUES
  ('C/C=C1\NC(=O)[C@@H](NC(=O)[C@@H](NC(=O)[C@H](C)NC(=O)CCC)[C@@H](C)O)[C@@H](C)OC(=O)[C@H](C(C)C)NC(=O)[C@H](Cc2ccc(O)c(Br)c2)N(C)C(=O)[C@H](Cc2ccccc2)N2C(=O)[C@H](CC[C@H]2O)NC1=O [Molassamide B, molassamide B]', 'Mean (RFU/s)', 0.844),
  ('CC=C1NC(=O)[C@@H](NC(=O)[C@@H](NC(=O)[C@@H]2CCCN2C(=O)CCC)[C@@H](C)OC(=O)C2CCCN2C(=O)CCC)[C@@H](C)OC(=O)[C@H](C(C)C)NC(=O)[C@H](Cc2ccc(O)cc2)N(C)C(=O)[C@H](CC(C)C)N2C(=O)[C@H](CC[C@H]2O)NC1=O (stereo partly drawn) [Rivulariapeptolide 1121, rivulariapeptolide 1121]', 'Mean (RFU/s)', 1.527),
  ('CC=C1NC(=O)[C@@H](NC(=O)[C@@H](NC(=O)[C@@H]2CCCN2C(=O)CCC)[C@@H](C)O)[C@@H](C)OC(=O)[C@H](C(C)C)NC(=O)[C@H](Cc2ccc(O)cc2)N(C)C(=O)[C@H](Cc2ccccc2)N2C(=O)[C@H](CC[C@H]2O)NC1=O [Rivulariapeptolide 988, rivulariapeptolide 988]', 'Mean (RFU/s)', 2.381);

----------
- Target Or System: Elastase (Sus scrofa)
- Construct: purchased Sigma-Aldrich
- Sequence (P00772 27-266): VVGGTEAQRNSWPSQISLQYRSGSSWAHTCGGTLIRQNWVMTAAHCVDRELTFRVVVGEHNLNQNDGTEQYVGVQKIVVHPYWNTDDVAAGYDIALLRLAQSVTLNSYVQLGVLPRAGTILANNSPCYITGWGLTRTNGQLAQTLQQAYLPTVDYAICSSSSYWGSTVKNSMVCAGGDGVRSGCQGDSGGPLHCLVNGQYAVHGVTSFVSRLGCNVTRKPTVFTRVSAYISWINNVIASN
- Method Summary: Elastase inhibition, fluorogenic substrate assay (MeOSuc-Ala-Ala-Pro-Val-AMC)
- Assay type: biochemical, Sus domesticus
- Stated Conditions: Elastase; inhibitor concentration 111.111 nM; 40 min pre-incubation
# reported Mean (RFU/s); entries follow
Measured Property: Mean (RFU/s)

INSERT INTO results (compound, measured_property, recorded_result) VALUES
  ('C/C=C1\NC(=O)[C@@H](NC(=O)[C@@H](NC(=O)[C@H](C)NC(=O)CCC)[C@@H](C)O)[C@@H](C)OC(=O)[C@H](C(C)C)NC(=O)[C@H](Cc2ccc(O)c(Br)c2)N(C)C(=O)[C@H](Cc2ccccc2)N2C(=O)[C@H](CC[C@H]2O)NC1=O [Molassamide B, molassamide B]', 'Mean (RFU/s)', 0.024),
  ('C/C=C1\NC(=O)[C@@H](NC(=O)[C@@H](NC(=O)[C@H](C)NC(=O)CCC)[C@@H](C)O)[C@@H](C)OC(=O)[C@H](C(C)C)NC(=O)[C@H](Cc2ccc(O)cc2)N(C)C(=O)[C@H](Cc2ccccc2)N2C(=O)[C@H](CC[C@H]2O)NC1=O [Molassamide, molassamide]', 'Mean (RFU/s)', 0.1337),
  ('CC=C1NC(=O)[C@@H](NC(=O)[C@@H](NC(=O)[C@@H]2CCCN2C(=O)CCC)[C@@H](C)OC(=O)C2CCCN2C(=O)CCC)[C@@H](C)OC(=O)[C@H](C(C)C)NC(=O)[C@H](Cc2ccc(O)cc2)N(C)C(=O)[C@H](CC(C)C)N2C(=O)[C@H](CC[C@H]2O)NC1=O (stereo partly drawn) [Rivulariapeptolide 1121, rivulariapeptolide 1121]', 'Mean (RFU/s)', 0.02167);
